Here, each record is paired with measured Emax data.
# assayed.system: UniProt P21554
# method.summary: Negative allosteric modulator activity at human CB1R expressed in CHO-K1 cells assessed as inhibition of CP55,940-induced beta-arrestin recruitment preincubated for 30 mins followed by CP55,940 addition measured for 90 mins by PathHunter assay relative to control
# Type: cell-based
measured.property: Emax (%)

# chemical.structure, value.units, assay.value
records = [
    ("[N-]=[N+]=NCCc1c(C(=O)NCCc2ccc(N3CCCCC3)cc2)[nH]c2ccc(Cl)cc12", "%", 105),
    ("O=C(Nc1ccc(N=C=S)cc1)Nc1cccc(-c2cccc(N3CCCC3)n2)c1", "%", 106),
    ("[N-]=[N+]=Nc1ccc(NC(=O)Nc2cccc(-c3cccc(N4CCCC4)n3)c2)cc1", "%", 105),
    ("O=C(Nc1ccc(Cl)cc1)Nc1cccc(-c2cccc(N3CCCC3)n2)c1", "%", 106),
    ("O=C(Nc1ccc(C(=O)c2ccccc2)cc1)Nc1cccc(-c2cccc(N3CCCC3)n2)c1", "%", 77.4),
    ("O=C(NCCc1ccc(N2CCCCC2)cc1)c1[nH]c2ccc(Cl)cc2c1CCN=C=S", "%", 107),
    ("CCc1c(C(=O)NCCc2ccc(N3CCCCC3)cc2)[nH]c2ccc(N=[N+]=[N-])cc12", "%", 105),
    ("CCc1c(C(=O)NCCc2ccc(N3CCCCC3)cc2)[nH]c2ccc(Cl)cc12", "%", 105),
    ("CCc1c(C(=O)NCCc2ccc(N3CCCCC3)cc2)[nH]c2ccc(N=C=S)cc12", "%", 103),
]

====

# assayed.system: Cannabinoid receptor 1 (Homo sapiens, UniProt P21554)
# Sequence (P21554 whole entry): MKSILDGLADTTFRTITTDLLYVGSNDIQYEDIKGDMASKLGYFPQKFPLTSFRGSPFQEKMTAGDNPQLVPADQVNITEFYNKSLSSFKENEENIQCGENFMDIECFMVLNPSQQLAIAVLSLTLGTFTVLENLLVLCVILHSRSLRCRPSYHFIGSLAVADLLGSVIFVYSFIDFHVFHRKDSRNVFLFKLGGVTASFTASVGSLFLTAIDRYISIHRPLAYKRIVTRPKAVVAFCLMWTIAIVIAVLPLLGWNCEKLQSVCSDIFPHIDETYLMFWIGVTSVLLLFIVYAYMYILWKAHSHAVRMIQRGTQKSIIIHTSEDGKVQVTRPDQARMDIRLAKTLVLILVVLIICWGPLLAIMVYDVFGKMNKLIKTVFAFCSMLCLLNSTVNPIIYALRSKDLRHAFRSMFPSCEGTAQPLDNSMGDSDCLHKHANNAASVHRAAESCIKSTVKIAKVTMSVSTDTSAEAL
# method.summary: Negative allosteric modulator activity at human CB1R expressed in CHO-K1 cells assessed as effect on CP55,940-induced inhibition of forskolin-induced cAMP accumulation preincubated for 30 mins followed by CP55,940 addition measured for 30 mins by HitHunter assay
# Type: functional, cell-based
measured.property: EC50

# chemical.structure, measured.property, assay.value
rows = [
    ("CCc1c(C(=O)NCCc2ccc(N3CCCCC3)cc2)[nH]c2ccc(Cl)cc12", "EC50", "324 nM"),
    ("O=C(Nc1ccc(C(=O)c2ccccc2)cc1)Nc1cccc(-c2cccc(N3CCCC3)n2)c1", "EC50", "> 10000 nM"),
    ("O=C(NCCc1ccc(N2CCCCC2)cc1)c1[nH]c2ccc(Cl)cc2c1CCN=C=S", "EC50", "> 10000 nM"),
    ("[N-]=[N+]=Nc1ccc(NC(=O)Nc2cccc(-c3cccc(N4CCCC4)n3)c2)cc1", "EC50", "166 nM"),
    ("CCc1c(C(=O)NCCc2ccc(N3CCCCC3)cc2)[nH]c2ccc(N=C=S)cc12", "EC50", "174 nM"),
    ("[N-]=[N+]=NCCc1c(C(=O)NCCc2ccc(N3CCCCC3)cc2)[nH]c2ccc(Cl)cc12", "EC50", "1120 nM"),
]

====

# assayed.system: Cannabinoid receptor 1 (Homo sapiens)
# method.summary: Negative allosteric modulator activity at human CB1R expressed in CHO-K1 cells assessed as effect on CP55,940-induced inhibition of forskolin-induced cAMP accumulation preincubated for 30 mins followed by CP55,940 addition measured for 30 mins by HitHunter assay relative to control
# Type: functional, cell-based

# chemical.structure, value.units, Emax
measured = [
    ("O=C(Nc1ccc(C(=O)c2ccccc2)cc1)Nc1cccc(-c2cccc(N3CCCC3)n2)c1", "%", 28.1),
    ("[N-]=[N+]=NCCc1c(C(=O)NCCc2ccc(N3CCCCC3)cc2)[nH]c2ccc(Cl)cc12", "%", 96.8),
    ("CCc1c(C(=O)NCCc2ccc(N3CCCCC3)cc2)[nH]c2ccc(N=C=S)cc12", "%", 111),
    ("O=C(NCCc1ccc(N2CCCCC2)cc1)c1[nH]c2ccc(Cl)cc2c1CCN=C=S", "%", -8.84),
]
